Test system: Fibroblast
Experiment: Reprogramming activity in human Fibroblast cells harbouring LTR7-GFP assessed as induction of iPSCs from somatic cells by measuring TRA-160 positive colonies at 5 uM measured after 7 days in presence of SOX2/KLF4/L-MYC/LIN28 (SKML)
Type: functional, cell-based
Details: time 7.0 day
Calls of active or inactive are those of the source. The calls are words filed in the database; no cut-off is given here.
Classes used: active, inactive

{"MOL SMILES": "CC(C)(C)c1csc(Nc2ccc(Cl)cc2)n1", "EXPERIMENTAL SYSTEM": "Fibroblast", "ASSIGNED CATEGORY": "inactive"}
{"MOL SMILES": "Cc1cccc(Nc2nc(C(C)(C)C)cs2)c1C", "EXPERIMENTAL SYSTEM": "Fibroblast", "ASSIGNED CATEGORY": "active"}
{"MOL SMILES": "CCOC(=O)c1csc(Nc2ccc(C(=O)O)cc2)n1", "EXPERIMENTAL SYSTEM": "Fibroblast", "ASSIGNED CATEGORY": "active"}
{"MOL SMILES": "CCOC(=O)c1csc(Nc2ccc(Cl)cc2)n1", "EXPERIMENTAL SYSTEM": "Fibroblast", "ASSIGNED CATEGORY": "active"}
{"MOL SMILES": "Cc1ccc(-c2cn3cc(C)ccc3n2)cc1", "EXPERIMENTAL SYSTEM": "Fibroblast", "ASSIGNED CATEGORY": "active"}
{"MOL SMILES": "CCOC(=O)c1csc(Nc2ccc(C)cc2Br)n1", "EXPERIMENTAL SYSTEM": "Fibroblast", "ASSIGNED CATEGORY": "active"}

----------
Biological target: POU domain, class 5, transcription factor 1 (Homo sapiens) (UniProt Q01860)
Sequence (Q01860 whole entry, the tested form may be a part): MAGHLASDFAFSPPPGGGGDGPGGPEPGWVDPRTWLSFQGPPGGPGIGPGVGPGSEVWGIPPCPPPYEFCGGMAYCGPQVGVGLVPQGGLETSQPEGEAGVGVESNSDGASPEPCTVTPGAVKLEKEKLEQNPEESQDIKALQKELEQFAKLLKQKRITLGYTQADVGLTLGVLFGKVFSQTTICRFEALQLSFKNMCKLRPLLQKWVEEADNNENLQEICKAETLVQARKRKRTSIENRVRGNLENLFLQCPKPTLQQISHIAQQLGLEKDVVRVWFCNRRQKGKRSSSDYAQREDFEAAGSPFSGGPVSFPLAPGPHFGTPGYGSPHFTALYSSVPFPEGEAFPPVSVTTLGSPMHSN
Test: Induction of OCT4 (unknown origin) expressed in human NCCIT reporter cells assessed as increase in luminescence signal measured after 24 hrs by luciferase reporter assay
Assay type: cell-based
Calls of active or inactive are those of the source. The calls are words filed in the database; no cut-off is given here.
MEASURED PARAMETER: Activity

{"MOL SMILES": "CCOC(=O)c1csc(Nc2ccc(C#N)cc2)n1", "MEASURED PARAMETER": "Activity", "VALUE REPORTED": "inactive"}
{"MOL SMILES": "CCOC(=O)c1csc(Nc2cc(OC)ccc2OC)n1", "MEASURED PARAMETER": "Activity", "VALUE REPORTED": "inactive"}
{"MOL SMILES": "CCOC(=O)c1csc(Nc2ccc(F)cc2F)n1", "MEASURED PARAMETER": "Activity", "VALUE REPORTED": "inactive"}
{"MOL SMILES": "CCOC(=O)c1csc(Nc2cc(C(F)(F)F)cc(C(F)(F)F)c2)n1", "MEASURED PARAMETER": "Activity", "VALUE REPORTED": "inactive"}
{"MOL SMILES": "CCOC(=O)c1csc(Nc2cc(F)ccc2F)n1", "MEASURED PARAMETER": "Activity", "VALUE REPORTED": "inactive"}
{"MOL SMILES": "CCOC(=O)c1csc(Nc2ccc(Cl)cc2)n1", "MEASURED PARAMETER": "Activity", "VALUE REPORTED": "inactive"}
{"MOL SMILES": "CCOC(=O)c1csc(Nc2ccc(C)cc2Br)n1", "MEASURED PARAMETER": "Activity", "VALUE REPORTED": "inactive"}
{"MOL SMILES": "CCOC(=O)c1csc(Nc2ccc(Cl)cc2OC)n1", "MEASURED PARAMETER": "Activity", "VALUE REPORTED": "inactive"}
{"MOL SMILES": "CCOC(=O)c1csc(Nc2ccc(OC)cc2)n1", "MEASURED PARAMETER": "Activity", "VALUE REPORTED": "inactive"}
{"MOL SMILES": "CCOC(=O)c1csc(Nc2ccc(OC)cc2OC)n1", "MEASURED PARAMETER": "Activity", "VALUE REPORTED": "inactive"}
{"MOL SMILES": "CCOC(=O)c1csc(Nc2ccc(C)cc2)n1", "MEASURED PARAMETER": "Activity", "VALUE REPORTED": "inactive"}
{"MOL SMILES": "CCOC(=O)c1csc(Nc2ccc(Br)cc2C)n1", "MEASURED PARAMETER": "Activity", "VALUE REPORTED": "inactive"}
{"MOL SMILES": "CCOC(=O)c1csc(Nc2ccc(O)cc2)n1", "MEASURED PARAMETER": "Activity", "VALUE REPORTED": "inactive"}
{"MOL SMILES": "CCOC(=O)c1csc(Nc2ccc([N+](=O)[O-])cc2)n1", "MEASURED PARAMETER": "Activity", "VALUE REPORTED": "inactive"}

----------
Tested on: NCCIT
Assay: Cytotoxicity against human NCCIT cells assessed as inhibition of cell viability measured after 48 hrs by MTT assay
Format: functional, cell-based
pIC50: −log10 of the molar value.
Items are presented alongside their recorded pIC50.
MEASURED PARAMETER: pIC50

{"MOL SMILES": "CCOC(=O)c1csc(Nc2ccc(OC)cc2OC)n1", "VALUE REPORTED": "< 4.70"}
{"MOL SMILES": "CCOC(=O)c1csc(Nc2ccc(C#N)cc2)n1", "VALUE REPORTED": "< 4.70"}
{"MOL SMILES": "Cc1cccc(Nc2nc(C(C)(C)C)cs2)c1C", "VALUE REPORTED": 4.96}
{"MOL SMILES": "Cc1ccc(Nc2nc(C(C)(C)C)cs2)cc1", "VALUE REPORTED": "< 4.70"}
{"MOL SMILES": "Cc1ccc(Nc2nc(C(C)(C)C)cs2)c(C)c1", "VALUE REPORTED": "< 4.70"}
{"MOL SMILES": "CCOC(=O)c1csc(Nc2ccc(Cl)cc2OC)n1", "VALUE REPORTED": "< 4.70"}
{"MOL SMILES": "CCOC(=O)c1csc(Nc2ccc(Br)cc2C)n1", "VALUE REPORTED": "< 4.70"}
{"MOL SMILES": "CCOC(=O)c1csc(Nc2cc(F)ccc2F)n1", "VALUE REPORTED": "< 4.70"}
{"MOL SMILES": "CCOC(=O)c1csc(Nc2ccc(OC)cc2)n1", "VALUE REPORTED": "< 4.70"}
{"MOL SMILES": "CCOC(=O)c1csc(Nc2ccc(C)cc2)n1", "VALUE REPORTED": "< 4.70"}
{"MOL SMILES": "Cc1cccc(Nc2nc(C(C)(C)C)cs2)c1", "VALUE REPORTED": 5.22}
{"MOL SMILES": "Cc1ccccc1Nc1nc(C(C)(C)C)cs1", "VALUE REPORTED": 5.03}
{"MOL SMILES": "CCOC(=O)c1csc(Nc2cc(OC)ccc2OC)n1", "VALUE REPORTED": "< 4.70"}
{"MOL SMILES": "CC(C)(C)c1csc(Nc2ccc(Cl)cc2)n1", "VALUE REPORTED": 4.70}
{"MOL SMILES": "CCOC(=O)c1csc(Nc2ccc(O)cc2)n1", "VALUE REPORTED": "< 4.70"}
{"MOL SMILES": "CCOC(=O)c1csc(Nc2ccc(C(=O)O)cc2)n1", "VALUE REPORTED": "< 4.70"}
{"MOL SMILES": "Clc1ccc(Nc2nc(-c3ccccc3)cs2)cc1", "VALUE REPORTED": "< 4.70"}

----------
Molecular target: Albumin (Homo sapiens, UniProt P02768)
Sequence (P02768 whole entry): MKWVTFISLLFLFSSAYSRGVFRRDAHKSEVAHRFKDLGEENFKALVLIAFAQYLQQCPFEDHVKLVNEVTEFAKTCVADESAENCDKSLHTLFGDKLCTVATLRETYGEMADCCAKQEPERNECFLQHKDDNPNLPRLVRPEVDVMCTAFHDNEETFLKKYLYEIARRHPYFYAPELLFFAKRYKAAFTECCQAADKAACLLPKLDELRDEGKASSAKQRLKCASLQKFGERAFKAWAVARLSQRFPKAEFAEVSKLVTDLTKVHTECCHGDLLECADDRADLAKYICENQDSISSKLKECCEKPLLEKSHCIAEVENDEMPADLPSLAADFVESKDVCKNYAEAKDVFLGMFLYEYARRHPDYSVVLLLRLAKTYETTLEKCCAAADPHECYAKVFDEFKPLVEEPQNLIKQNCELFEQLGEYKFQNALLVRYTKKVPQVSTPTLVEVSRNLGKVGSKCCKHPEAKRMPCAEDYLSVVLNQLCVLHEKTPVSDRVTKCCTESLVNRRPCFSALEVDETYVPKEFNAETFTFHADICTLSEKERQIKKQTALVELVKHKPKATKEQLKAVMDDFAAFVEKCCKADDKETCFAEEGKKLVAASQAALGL
Assay: Protein binding in serum albumin (unknown origin)
Type: ADME
Details: read-out: PB (converted)
MEASURED PARAMETER: fraction unbound

{"MOL SMILES": "CCOC(=O)c1csc(Nc2ccc(Cl)cc2)n1", "MEASURED PARAMETER": "fraction unbound", "VALUE REPORTED": 0.1}

Values from ChEMBL document CHEMBL5625160
